System name: UniProtKB Q08881
Sequence (Q08881 whole entry): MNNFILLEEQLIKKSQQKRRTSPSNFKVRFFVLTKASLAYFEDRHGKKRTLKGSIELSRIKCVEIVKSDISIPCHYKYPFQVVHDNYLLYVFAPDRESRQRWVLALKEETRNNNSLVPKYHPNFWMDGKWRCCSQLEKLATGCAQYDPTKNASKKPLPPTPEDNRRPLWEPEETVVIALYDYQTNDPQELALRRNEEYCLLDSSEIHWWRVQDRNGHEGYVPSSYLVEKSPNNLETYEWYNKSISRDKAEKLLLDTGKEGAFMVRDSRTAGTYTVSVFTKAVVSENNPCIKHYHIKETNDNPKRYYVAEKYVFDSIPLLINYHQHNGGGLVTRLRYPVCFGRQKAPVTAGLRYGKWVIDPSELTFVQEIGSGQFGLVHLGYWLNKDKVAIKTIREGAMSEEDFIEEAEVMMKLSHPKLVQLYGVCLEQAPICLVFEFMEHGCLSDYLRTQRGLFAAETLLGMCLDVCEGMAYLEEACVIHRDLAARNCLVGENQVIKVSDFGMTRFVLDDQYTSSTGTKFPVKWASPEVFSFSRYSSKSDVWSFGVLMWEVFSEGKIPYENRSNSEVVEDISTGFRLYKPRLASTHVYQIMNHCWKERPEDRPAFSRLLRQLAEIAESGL
Measurement label: IC50

- Molecule: "C=CC(=O)N1CCC[C@@H](Nc2ncnc3[nH]cc([C@H]4C[C@@H]4COC)c23)C1 (single isomer, unassigned) [Example 26]"
  IC50: "≤ 10 nM"
- Molecule: "C=CC(=O)N1CCC[C@@H](Nc2ccnc3[nH]cc(C(=O)C4CCCC4)c23)C1"
  IC50: "≤ 10 nM"
- Molecule: "C=CC(=O)N1CC(Nc2ncnc3[nH]cc(C(=O)C4CC4)c23)C1"
  IC50: "10 to 100 nM"
- Molecule: "C=CC(=O)N1CCC[C@@H](Nc2ncnc3[nH]cc([C@]45CCC[C@H]4C5(F)F)c23)C1 (single isomer, unassigned)"
  IC50: "10 to 100 nM"
- Molecule: "C=CC(=O)N1CCC(Nc2cnc3[nH]cc(C(COC)C4CC4)c3c2)CC1 (centres unmarked)"
  IC50: "> 100 nM"

Query: Form entry - test system: UniProtKB Q08881; read-out: IC50; molecule: C=CC(=O)N1C[C@H](Nc2ncnc3[nH]cc(C(=O)OC(C)(C)C)c23)CC[C@@H]1C
Response: ≤ 10 nM

Query: Form entry - test system: UniProtKB Q08881; read-out: IC50; molecule: C=CC(=O)N1CCC[C@@H](Nc2ncnc3[nH]cc(C4CCCC4)c23)C1
Response: ≤ 10 nM

Query: Form entry - test system: UniProtKB Q08881; read-out: IC50; molecule: C=CC(=O)N1CC(Nc2ncnc3[nH]cc(CC4CC4)c23)CCC1C(C)C (centres unmarked)
Response: 10 to 100 nM

---

System: JAK1/3 phosphorylation of its substrate, STAT5, at Y694
Assay name: JAK1/3 target modulation assay (IL-2 stimulated STAT5 Y694 phosphorylation in PBMC)
Assay type: cell-based
Setup conditions: Homo sapiens, PBMC, Primary human peripheral blood mononuclear cells, IL-2 25 ng/mL; read-out: IL2-STAT5 Inh. IC50
IC50 by entry:

Reference set, count: 2
- Molecule: "C=CC(=O)N1C[C@H](Nc2ncnc3[nH]cc(CC4CC4)c23)CC[C@@H]1C(C)C (single isomer, unassigned)"
  IC50: "> 1000 nM"
- Molecule: "C=CC(=O)N1CCC[C@@H](Nc2ncnc3[nH]cc(C(=O)[C@H]4CCOC4)c23)C1 (single isomer, unassigned)"
  IC50: "> 1000 nM"

Query: Looking for the measured IC50 of C=CC(=O)N1C[C@@H](Nc2ncnc3[nH]cc([C@@H]4CC4(F)F)c23)CC[C@H]1C(C)C (single isomer, unassigned) , can you help?
Response: > 1000 nM

---

IC50 by entry:
System name: JAK3 (Homo sapiens (Human), UniProt P52333)
Sequence (P52333 781-1124): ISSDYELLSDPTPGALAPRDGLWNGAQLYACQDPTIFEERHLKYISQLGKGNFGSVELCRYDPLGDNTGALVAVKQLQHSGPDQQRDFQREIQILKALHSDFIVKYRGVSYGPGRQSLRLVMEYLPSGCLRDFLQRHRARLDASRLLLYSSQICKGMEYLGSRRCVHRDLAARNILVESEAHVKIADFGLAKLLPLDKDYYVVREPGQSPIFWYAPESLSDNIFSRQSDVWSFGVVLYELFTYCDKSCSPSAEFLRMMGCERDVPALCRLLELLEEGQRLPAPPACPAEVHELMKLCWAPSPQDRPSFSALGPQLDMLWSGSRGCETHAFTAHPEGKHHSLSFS

Reference set, count: 5
- Molecule: "C=CC(=O)N1C[C@@H](Nc2ncnc3[nH]cc(CC4CC4)c23)CC[C@H]1C(C)C (single isomer, unassigned)"
  IC50: "≤ 10 nM"
- Molecule: "C=CC(=O)N1C[C@@H](Nc2ncnc3[nH]cc([C@H]4CC4(F)F)c23)CC[C@H]1CC (single isomer, unassigned)"
  IC50: "10 to 100 nM"
- Molecule: "C=CC(=O)N1CC(Nc2ncnc3[nH]cc(CC4CC4)c23)CCC1CC (stereo not drawn)"
  IC50: "≤ 10 nM"
- Molecule: "C=CC(=O)N1C[C@H](Nc2ncnc3[nH]cc([C@H]4CC4(F)F)c23)CC[C@@H]1C (single isomer, unassigned)"
  IC50: "≤ 10 nM"
- Molecule: "C=CC(=O)N1C[C@@H](Nc2ncnc3[nH]cc([C@H]4CC4(F)F)c23)CC[C@H]1C(C)C (single isomer, unassigned)"
  IC50: "≤ 10 nM"

Query: Form entry - test system: JAK3 (Homo sapiens (Human), UniProt P52333); read-out: IC50; molecule: C[C@H]1CC[C@@H](Nc2ncnc3[nH]cc([C@@H]4CC4(F)F)c23)CN1C(=O)/C=C/CN(C)C (single isomer, unassigned)
Response: 10 to 100 nM

Query: Form entry - test system: JAK3 (Homo sapiens (Human), UniProt P52333); read-out: IC50; molecule: C=CC(=O)N1CCC[C@@H](Nc2ncnc3[nH]cc(C(C)C4CC4)c23)C1 (stereo partly drawn)
Response: > 100 nM

Query: Form entry - test system: JAK3 (Homo sapiens (Human), UniProt P52333); read-out: IC50; molecule: C=CC(=O)N1C[C@H](Nc2ncnc3[nH]cc([C@@H]4C(C)(C)C4(F)F)c23)CC[C@@H]1C (single isomer, unassigned)
Response: ≤ 10 nM

Query: Form entry - test system: JAK3 (Homo sapiens (Human), UniProt P52333); read-out: IC50; molecule: C=CC(=O)N1CCC(Nc2cnc3[nH]cc(C(=O)OCC)c3n2)CC1
Response: ≤ 10 nM

Query: Form entry - test system: JAK3 (Homo sapiens (Human), UniProt P52333); read-out: IC50; molecule: C=CC(=O)N1CCC(Nc2cnc3[nH]cc(C(=O)C4CC4)c3n2)CC1
Response: ≤ 10 nM

Query: Form entry - test system: JAK3 (Homo sapiens (Human), UniProt P52333); read-out: IC50; molecule: C=CC(=O)N1C[C@H](Nc2ncnc3[nH]cc(C4CC4(F)F)c23)CC[C@@H]1C (mixture of isomers)
Response: ≤ 10 nM

Query: Form entry - test system: JAK3 (Homo sapiens (Human), UniProt P52333); read-out: IC50; molecule: C=CC(=O)N1CC[C@@H](Nc2ccnc3[nH]cc(C(=O)C4CC4)c23)C1
Response: 10 to 100 nM

Query: Form entry - test system: JAK3 (Homo sapiens (Human), UniProt P52333); read-out: IC50; molecule: C=CC(=O)N1C[C@H](Nc2ncnc3[nH]cc([C@@H]4C[C@H]4COC)c23)CC[C@@H]1C (single isomer, unassigned)
Response: ≤ 10 nM

Query: Form entry - test system: JAK3 (Homo sapiens (Human), UniProt P52333); read-out: IC50; molecule: C=CC(=O)N1CCC[C@@H](Nc2ncnc3[nH]cc(C4(C)CC4)c23)C1
Response: ≤ 10 nM

Query: Form entry - test system: JAK3 (Homo sapiens (Human), UniProt P52333); read-out: IC50; molecule: C=CC(=O)N1CCC[C@@H](Nc2ncnc3[nH]cc(C(=O)C4CC4)c23)C1
Response: 10 to 100 nM

---

// endpoint IC50 / system UniProt P52333

Query: Form entry - test system: UniProt P52333; read-out: IC50; compound: C=CC(=O)N1C[C@@H](Nc2ncnc3[nH]cc([C@@H]4CC4(F)F)c23)CC[C@H]1C(C)C (single isomer, unassigned)
Response: 0.01 to 0.1 µM

Query: Form entry - test system: UniProt P52333; read-out: IC50; compound: C=CC(=O)N1C[C@H](Nc2ncnc3[nH]cc([C@H]4CC4(F)F)c23)CC[C@@H]1CC (single isomer, unassigned)
Response: > 0.1 µM

Query: Form entry - test system: UniProt P52333; read-out: IC50; compound: C=CC(=O)N1C[C@H](Nc2ccnc3[nH]cc([C@@H]4C[C@H]4COC)c23)CC[C@@H]1C (single isomer, unassigned)
Response: ≤ 0.01 µM

---

pIC50 by entry:
Tested on: JAK1/3 phosphorylation of its substrate, STAT5, at Y694
Assay name: JAK1/3 target modulation assay (IL-2 stimulated STAT5 Y694 phosphorylation in PBMC)
Format: cell-based
Setup conditions: Homo sapiens, PBMC, Primary human peripheral blood mononuclear cells, IL-2 25 ng/mL; read-out: IL2-STAT5 Inh. IC50
pIC50: −log10 of the molar value.

Reference set, count: 3
- Compound: "C[C@H]1CC[C@@H](Nc2ncnc3[nH]cc(CC4CC4)c23)CN1C(=O)/C=C/CN(C)C"
  Recorded result: "< 6.00"
- Compound: "C=CC(=O)N1C[C@H](Nc2ncnc3[nH]cc(C(=O)C4CC4)c23)CC[C@@H]1C"
  Recorded result: "6.00 to 7.00"
- Compound: "C=CC(=O)N1C[C@H](Nc2ncnc3[nH]cc(CC4CC4)c23)CC[C@@H]1C"
  Recorded result: "6.00 to 7.00"

Query: Looking for the measured pIC50 of C=CC(=O)N1C[C@H](Nc2ncnc3[nH]cc(C4CC4(F)F)c23)CC[C@@H]1C (mixture of isomers) , can you help?
Response: ≥ 7.00

Query: Looking for the measured pIC50 of C=CC(=O)N1CCC(Nc2cnc3[nH]cc(C(COC)C4CC4)c3c2)CC1 (stereo not shown) , can you help?
Response: < 6.00

Query: Looking for the measured pIC50 of C=CC(=O)N1C[C@@H](Nc2ncnc3[nH]cc([C@H]4CC4(F)F)c23)CC[C@H]1C(C)C (single isomer, unassigned) , can you help?
Response: 6.00 to 7.00

Query: Looking for the measured pIC50 of C=C(C)C(=O)N1C[C@H](Nc2ncnc3[nH]cc([C@H]4CC4(F)F)c23)CC[C@@H]1C (single isomer, unassigned) , can you help?
Response: < 6.00
